// data source = the supplement of paper PMC9233669

System: biotinyl-Phe-oxazolone
Experiment: self-aminoacylation, catalytic enhancement (BFO) (fold over background); higher = more active; k-Seq, kA / k0A0; sequences stand for … in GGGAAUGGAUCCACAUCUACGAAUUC…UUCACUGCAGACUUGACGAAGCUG
Fewer inactive variants are shown than the library holds.
I would appreciate it if you labelled entries Criterion met when self-aminoacylation is 30 or higher, otherwise Criterion not met.

In: Given the entry AUUCGCCUAGGUCAUCGGUUG [Fam2.2 aminoacylation ribozyme variant] , answer whether its self-aminoacylation meets or surpasses 30.
Out: Criterion not met

In: Given the entry CUACUUCAAACAUUCCGUCUG [Fam1A.1 aminoacylation ribozyme variant] , answer whether its self-aminoacylation meets or surpasses 30.
Out: Criterion not met

In: Given the entry AAGUUUCCUAAUAGUCGUAAG [Fam3.1 aminoacylation ribozyme variant] , answer whether its self-aminoacylation meets or surpasses 30.
Out: Criterion not met

In: Given the entry CUACUUCAAACAAUCGGCCUG [Fam1A.1 aminoacylation ribozyme variant] , answer whether its self-aminoacylation meets or surpasses 30.
Out: Criterion met

In: Given the entry CCACACUUCAAGCACUCGAUC [Fam1B.1 aminoacylation ribozyme variant] , answer whether its self-aminoacylation meets or surpasses 30.
Out: Criterion not met

In: Given the entry CCACAAUUGAAGCAAUCGGUC [Fam1B.1 aminoacylation ribozyme variant] , answer whether its self-aminoacylation meets or surpasses 30.
Out: Criterion not met

In: Given the entry AUUAACUUAGGUCAUCGGGUG [Fam2.2 aminoacylation ribozyme variant] , answer whether its self-aminoacylation meets or surpasses 30.
Out: Criterion not met

In: Given the entry AUUCACCUAUGUCAUCGGGUG [Fam2.2 aminoacylation ribozyme variant] , answer whether its self-aminoacylation meets or surpasses 30.
Out: Criterion met
